# System: SK-OV-3 ovarian
# method summary: NCI-60 one-dose screen, 48 h
# measurement conditions: 10 µM unless noted
The panel holds about 83,000 compounds, 20% with a hit somewhere; the sample as a whole holds those more often. The source made the active and inactive calls. The calls were made as follows: active = growth percent below 10; inactive = the rest.
Parameter call: string, one of TRUE for active, FALSE for inactive

Solved entries:
CCOC(=O)Nc1ccc2nc(Sc3ccc(Cl)cc3)sc2c1; FALSE
CC1=CC(=O)OC1C/C=C(\C)CCC1[C@@]2(C)CCC[C@@](C)(C(=O)O)C2CC[C@@]1(C)O (stereo not given in full); FALSE
c1ccc(-c2ccc(-c3ccccc3)[nH]2)cc1; FALSE
CC(C)OC1OC(OC(C)C)C(OC(C)C)OC1OC(C)C (stereo not given); FALSE
COc1ccc(/C(C)=N/NC(=O)CSc2nc3ccccc3c(=O)n2CCc2ccc(S(N)(=O)=O)cc2)cc1; TRUE
CCN(CC)c1ccc(/C=C2/NC(=O)NC2=O)cc1; FALSE

Status in this test for `CSc1ccc(/C=C2\C=C(CC(=O)NCc3ccc(C(=O)c4ccccc4)cc3)c3cc(F)ccc32)cc1` ?
TRUE

Status in this test for CC(C)[C@@]12C[C@@H](OC(=O)C3CO3)[C@@](C)(O1)[C@@H]1CC[C@@H](C)[C@H]1[C@@H]2OC(=O)/C=C/c1ccccc1 (stereo not given in full) ?
FALSE

Status in this test for `CC(C)CCSc1nc(-c2ccc(F)cc2)c(C#N)c(N2CCCCC2)n1` ?
FALSE

----------
# Test system: LOX IMVI melanoma
# method summary: NCI-60 one-dose screen, 48 h (100 = growth as untreated, 0 = no growth, -100 = all killed)
# measurement conditions: 10 µM unless noted
The panel holds about 83,000 compounds, 20% with a hit somewhere; the sample as a whole holds those more often.
Entry class follows growth: low bracket: < 30%; middle bracket: ≥ 30% and < 90%; high bracket: ≥ 90%

OC(CCCCCCCCC(O)CN1CCc2ccccc2C1)CN1CCc2ccccc2C1 (stereo unspecified); high bracket
CC1OC(n2c3ccccc3c3c4c(c5c6ccccc6[nH]c5c32)C(=O)N(CCN2CCOCC2)C4=O)CC(O)C1O (stereo unspecified); low bracket
C/C(=N\Nc1ccc([N+](=O)[O-])cn1)c1ccc(N)cc1; high bracket
COC(=O)[C@@H](Cc1c[nH]c2ccccc12)NC(=O)/C=C/c1ccccc1; middle bracket
COc1ccc(C(=O)C(CN(C)C)c2ccc(OC)cc2)cc1 (stereo unspecified); middle bracket

In the following, a different compound is considered.
Band assignment needed for `Nc1cc(C(=O)O)cc(C(=O)O)c1` please.
high bracket

----------
# Tested on: A549/ATCC NSCLC
# method summary: NCI-60 one-dose screen, 48 h (100 = growth as untreated, 0 = no growth, -100 = all killed)
# measurement conditions: 10 µM unless noted
The panel holds about 83,000 compounds, 20% with a hit somewhere; the sample as a whole holds those more often.
Quick rule for you: growth under 70% gets 1 (yes), anything else gets 0 (no).

CCN(CC)CCNC(=O)C(F)(F)C(F)(F)C(F)(F)F; 0 (no)
CCOC(=O)c1ccc(NC(=O)CSC(N)=O)cc1; 0 (no)
O=C1OCC2=C1C(c1ccccc1)c1cc3c(cc1N2CCO)CCC3 (centres undefined); 1 (yes)
O=C1Nc2ccc(Br)cc2/C1=N/c1nc(-c2ccccc2)cs1; 0 (no)
COc1cc(/C=N/NC(=O)Cn2c(-c3ccc(C)o3)nc3ccccc32)ccc1OCc1ccccc1; 0 (no)
Clc1nnc2c3ccccc3ccn12; 0 (no)
COc1ccc(-c2nc3c(c(-c4ccc(Cl)cc4)nn3-c3ccccc3)c(-c3ccc(O)cc3)c2C#N)cc1; 1 (yes)
COc1ccc(CNc2c3ccccc3nc3ccc(OC)cc23)cc1; 1 (yes)
CC(C)CC1NC(=O)C(CC(C)C)N(CO)C1=O (centres undefined); 0 (no)
CC1=C(/C=C/C(C)=C/C=C(C(=O)O)\C(C)=C\C(=O)O)C(C)(C)CCC1; 0 (no)

Could you please tell me whether growth recorded for `CCc1onc(-c2ccc(OC)cc2)c1-c1ccccc1OCCN(CC)CC` is less than 70%?
0 (no)

Could you please tell me whether growth recorded for `CCN(CC)c1ccc(/C=N/N=C(N)N)cc1` is less than 70%?
1 (yes)

Could you please tell me whether growth recorded for `C/C(=N\NC(=O)CSc1nc2ccccc2c(=O)n1CCc1ccc(S(N)(=O)=O)cc1)c1ccc(Br)cc1` is less than 70%?
1 (yes)

Could you please tell me whether growth recorded for `COc1ccccc1/C=C/C(=O)CCC(=O)O` is less than 70%?
0 (no)
